Target: E. coli RNase P holoenzyme (M1 P RNA + rnpA protein)
Sequence: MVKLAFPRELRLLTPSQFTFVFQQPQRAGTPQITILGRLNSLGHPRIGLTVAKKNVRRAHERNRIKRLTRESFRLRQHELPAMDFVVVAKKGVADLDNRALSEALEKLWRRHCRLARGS
Test: relative kcat/Km (krel) vs genomic leader AAAGAU (relative (reference leader = 1)); higher = faster RNase P cleavage
Settings: fraction of substrate reacted: ~13-16% (15.68% repeat 1, 13.17% repeat 2)
The full ranking holds about 4,100 sequences; the median of “relative kcat/Km (krel) vs genomic leader AAAGAU” is about 1.7, and the highest 2% start at about 6.5. The full list was thinned out, with the highest values kept by preference.
Label label 1 when relative kcat/Km is at or above 4; anything below gets label 0.

Use the examples below as a reference point.
Biosequence: GTCTTG
Category: label 0

Biosequence: AATGCC
Category: label 0

Biosequence: GCCTAC
Category: label 1

Confirm if relative kcat/Km reported for the sequence GGCGCG is 4 or above.
label 0

Confirm if relative kcat/Km reported for the sequence TTTCTC is 4 or above.
label 0

Confirm if relative kcat/Km reported for the sequence TTCTCC is 4 or above.
label 1

Confirm if relative kcat/Km reported for the sequence TACATT is 4 or above.
label 1

Confirm if relative kcat/Km reported for the sequence CACGAA is 4 or above.
label 1

Confirm if relative kcat/Km reported for the sequence TTCTTA is 4 or above.
label 1

Confirm if relative kcat/Km reported for the sequence TCCTCT is 4 or above.
label 1

Confirm if relative kcat/Km reported for the sequence TTTGCT is 4 or above.
label 0

Confirm if relative kcat/Km reported for the sequence AACGAC is 4 or above.
label 1
